studySystem: human 5-HT4B receptor (Homo sapiens, UniProt P34969)
Construct: The entire coding region of the human 5-HT4B receptor (1338 bp); expressed in transfected cells
Sequence (P34969 1-445 isoform P34969-2): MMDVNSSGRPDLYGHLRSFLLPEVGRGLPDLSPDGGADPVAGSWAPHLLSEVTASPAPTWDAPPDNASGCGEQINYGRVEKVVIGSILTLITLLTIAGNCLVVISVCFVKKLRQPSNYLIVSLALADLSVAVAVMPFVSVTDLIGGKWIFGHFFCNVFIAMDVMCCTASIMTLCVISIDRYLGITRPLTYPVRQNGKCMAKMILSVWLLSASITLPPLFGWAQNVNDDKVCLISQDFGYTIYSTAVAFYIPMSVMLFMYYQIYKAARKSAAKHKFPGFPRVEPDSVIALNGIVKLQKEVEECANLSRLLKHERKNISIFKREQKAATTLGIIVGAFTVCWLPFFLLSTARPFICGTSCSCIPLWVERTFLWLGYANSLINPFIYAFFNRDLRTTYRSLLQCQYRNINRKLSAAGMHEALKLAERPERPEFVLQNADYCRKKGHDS
assay: cell-based
Type: cell-based
measurementConditions: L-M(TK-), read-out: Emax* (% 5-HT RESPONSE)
measure: Emax

// solved cases for Emax follow
compound | obsValue
CN1C[C@@H](NS(=O)(=O)N(C)C)C[C@@H]2c3cccc4c3c(cn4C)C[C@H]21 | 0%
CN1C[C@H](C(=O)N[C@]2(C)O[C@@]3(O)[C@@H]4CCCN4C(=O)[C@H](Cc4ccccc4)N3C2=O)C[C@@H]2c3cccc4[nH]cc(c34)C[C@H]21 [Dihydroergotamine] | 0%
NCCc1c[nH]c2ccc(C(N)=O)cc12 | 110%
CC(C)C[C@H]1C(=O)N2CCC[C@H]2[C@]2(O)O[C@](NC(=O)[C@@H]3C=C4c5cccc6[nH]c(Br)c(c56)C[C@H]4N(C)C3)(C(C)C)C(=O)N12 | 0%

response.value for COc1ccc2[nH]cc(CCN)c2c1 (field: Emax) = 100%
